The entries below are paired with their reported activity coefficient.
# PROTOCOL TEXT: activity coefficient (dimensionless); of the first substance listed, at infinite dilution; xn = mol fraction of the nth substance listed
# RECORDED CONDITIONS: 332.65 K; Liquid; Chromatography; x1 = 0

Guide cases for activity coefficient, answers given:
Requested read-out: activity coefficient. Entry: C=CCCCC [hex-1-ene] + CCCCCCCC[N+](C)(C)C.O=S(=O)([N-]S(=O)(=O)C(F)(F)F)C(F)(F)F 3.8

CC1CCCC1 [methylcyclopentane] + CCCCCCCCCC[N+](C)(C)C.O=S(=O)([N-]S(=O)(=O)C(F)(F)F)C(F)(F)F ? 2.99

Same for c1ccsc1 [thiophene] + CCCCCCCC[N+](CCCCCCCC)(CCCCCCCC)CCCCCCCC.O=S(=O)([N-]S(=O)(=O)C(F)(F)F)C(F)(F)F 0.4

Continuing:
Please look up its activity coefficient: CCCCCCCCCC [decane] + CCCCCCCC[N+](C)(C)C.O=S(=O)([N-]S(=O)(=O)C(F)(F)F)C(F)(F)F 17.9

Origin of measurements: the NIST ThermoML archive (doi:10.1021/je200637v)
